# ASSAYED_SYSTEM: T1, human MSLN-R3-his protein (human, UniProt Q13421 487-598)
# T1 construct: also called human MSLN-R3 protein; hMSLN-R3-his; not shown: His tag
# T1 sequence (Q13421 495-606): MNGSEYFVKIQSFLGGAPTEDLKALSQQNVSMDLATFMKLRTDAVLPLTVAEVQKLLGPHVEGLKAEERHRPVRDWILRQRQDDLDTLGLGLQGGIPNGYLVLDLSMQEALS
# ASSAY_INFO: ELISA, coated antigen; antibody 0.01 nM
READOUT_KIND: OD450 (OD450)
Response body: numeric value in OD450, unit text excluded.

Check out these entries, answers already filled in.
S009-F3.38.10 (antibody, human IgG1, kappa, V domains shown, Human-murine chimeric antibody, human IgG1/kappa constant regions) VH: EVQLQQSGPVLVKPGASVKMSCEASGYIFTDYYMNWVKKSHGKSLEWIGVINPKNGVISHNQKFKGKATLTVDKSSNTAYMELSSLTSEDSAVYYCANYGSRFYAMDYWGQGTSVTVSS VL: DVVMTQTPLSLPVSLGDQASISCRSSQSLIHSDGNTYLQWYLQKSGQSPKLLIYKVSNRFSGVPDRFSGSGSGTDFTLKISRVETEDLGVYFCSQTTHVPFTFGSGTKLEIKR :: 0.41
S009-F3.16.1 (antibody, human IgG1, kappa, V domains shown, Human-murine chimeric antibody, human IgG1/kappa constant regions) VH: EVKFEESGGGLVQPGGSMKLSCVASGFTFSNYWMNWVRQSPEKGLEWVAQIRLKSDNYATHYAESVKGRFSISRDDSKSSVYLQMNNLRAEDTGIYYCSVGTGGYWGQGTTLTVSS VL: DIVLTQSPASLALSPGKRATISCRASESVSIIGTDVIHWFQQKPGQPPKLLIYHASNLETGVPARFSGSGSRTDFTLTIDPVEEDDVAIYYCLQSRKIPWTFGGGTKLEIKR :: 0.65

Incoming: Reported OD450, binder S009-F3.80.22 (antibody, human IgG1, kappa, V domains shown, Human-murine chimeric antibody, human IgG1/kappa constant regions) VH: QVQLQQSGAELVRPGASVTLSCKASGYTFTDYEIHWVKQTPVHGLEWIGAFDPEIGGSAYNQKFKDRATLTADKSSSTAYMELHSLTAEDSAVYYCTDYYGSSSGYFDVWGTGTTVTVSS VL: DVVMTQTPLSLPVSLGDQASISCRSSQSLEHNNGNTYLHWFLHKPGQSPKLLIYKVSNRFSGVPDRFSGSGSGTDFTLKISRVEAEDLGVYFCSQSTHVPFTFGSGTKLEIKR : ____
Outgoing: 0.51
